settings: in acetonitrile, 293.15 K

- Smiles input: "Cc1ccc(NC(=O)/C(=C/Cl)Sc2ccccc2)cc1"
  solubility (mole fraction): 0.0086

###

conditions: in 2-methyltetrahydrofuran, 278.15 K

- Smiles input: "Cc1ccc(NC(=O)/C(=C/Cl)Sc2ccccc2)cc1"
  solubility (mole fraction): 0.0393

###

details: in toluene, 313.15 K
Measurement type: solubility (mole fraction)

- Smiles input: "Cc1ccc(NC(=O)/C(=C/Cl)Sc2ccccc2)cc1"
  Observed measurement: 0.069

###

conditions: in acetonitrile, 318.15 K
Measurement type: solubility (mole fraction)

- Smiles input: "Cc1ccc(NC(=O)/C(=C/Cl)Sc2ccccc2)cc1"
  Measurement type: "solubility (mole fraction)"
  Observed measurement: 0.0362
